Sourced from PubChem BioAssay AID330

# System: P388 leukemia ip, CD2F1 mice, survival T/C
# assay-text: NCI In Vivo Anticancer Drug Screen. Data for tumor model P388 Leukemia (intraperitoneal) in CD2F1 (CDF1) mice
# condition-label: endpoint: median survival time; dose: 400.0 mg/kg/injection; schedule: Q01DX009 (ip); vehicle: other; higher = longer survival
Inconclusive results and toxic doses are left out.
endpoint-name: T/C

| molecule | test-result |
| --- | --- |
| COc1cc2c(=O)n3c4c(cccc4c2cc1OC)CC3 | 96 % of control |
| O=C(CNO)OCc1ccccc1 | 106 % of control |
| CCOC(=O)N1CCc2cc(OC)c(OC)cc2C1(O)Cc1cc(OC)c(OC)cc1Br (centres undefined) | 113 % of control |

Field: next molecule
Look up and report T/C, with P388 leukemia ip, CD2F1 mice, survival T/C as system, for Cc1ccc(S(=O)(=O)N/N=C/c2ccc(C(=O)O)cc2)cc1
105 % of control

====

Below, each entry is listed alongside its reported T/C.
# System: P388 leukemia ip, CD2F1 mice, survival T/C
# assay-text: NCI In Vivo Anticancer Drug Screen. Data for tumor model P388 Leukemia (intraperitoneal) in CD2F1 (CDF1) mice
# condition-label: endpoint: median survival time; dose: 25.0 mg/kg/injection; schedule: Q01DX009 (ip); vehicle: saline; higher = longer survival
Toxic doses and inconclusive results are not listed.

A selection of reference data follows.
| compound | test-result |
| --- | --- |
| COc1ccccc1C1COC(c2ccccc2)(c2ccccc2)S1 (configuration not stated) | 108 % of control |
| FC(F)(F)c1cccc(C2CNCCO2)c1 (configuration not stated) | 105 % of control |
| CCN(CC)c1ccc(Pc2ccc(N(CC)CC)cc2)cc1 | 108 % of control |
| CCC(=O)NC(Cc1ccccc1F)C(=O)O (configuration not stated) | 88 % of control |
| NCCc1ccc(O)c(O)c1 | 108 % of control |
| CCOC(=O)/C(=C(\C)N)C1CC(=O)NC1=O (configuration not stated) | 104 % of control |
| CN(C)P1(N(C)C)=NP(N(C)C)(N(C)C)=NP(N(C)C)(N(C)C)=N1 | 89 % of control |
| Nc1cc(C(=O)O)cc(Cl)n1 | 111 % of control |
| CCCCCCCCCCCCCCCCCCCC[N+]1([O-])CCOCC1 | 94 % of control |
| COc1cccc(N)c1N | 99 % of control |

Field: next compound
Specify reported T/C for the compound shown: CC1(c2ccc3ccccc3c2)C(C#N)(C#N)C1(C#N)C#N
102 % of control

====

# Tested on: P388 leukemia ip, CD2F1 mice, survival T/C
# assay-text: NCI In Vivo Anticancer Drug Screen. Data for tumor model P388 Leukemia (intraperitoneal) in CD2F1 (CDF1) mice
# condition-label: endpoint: median survival time; dose: 12.5 mg/kg/injection; schedule: Q01DX009 (ip); vehicle: distilled water + Tween-80; higher = longer survival
# Description: The antitumor activity of compounds was measured in mice bearing transplantable tumors. Survival or tumor size were measured and the results are expressed as the measurement made in the treated group (T) divided by the measurement made in the vehicle treated control group (C). The tumor model used in this assay is P388 Leukemia (intraperitoneal) in CD2F1 (CDF1) mice
Toxic doses and inconclusive results are not listed.
endpoint-name: T/C

A selection of reference data follows.
| compound | measured-target | T/C |
| --- | --- | --- |
| CC(C1CC/C(=N/NC(N)=O)C1)[N+](=O)[O-] (stereo not given) | P388 leukemia ip, CD2F1 mice, survival T/C | 100 % of control |
| CCO/C=N/NS(=O)(=O)c1ccc(C)cc1 | P388 leukemia ip, CD2F1 mice, survival T/C | 108 % of control |
| CC(C)CCCCCCCCCCCCC(=O)NCC(=O)O | P388 leukemia ip, CD2F1 mice, survival T/C | 96 % of control |
| CCOC(=O)c1ccc(N=C=S)cc1 | P388 leukemia ip, CD2F1 mice, survival T/C | 100 % of control |

Look up and report T/C, with P388 leukemia ip, CD2F1 mice, survival T/C as system, for CC(C)CCCCCCCCCCCCC(=O)NCC(=O)NC1C(C)OC(Nc2ncnc3c2ncn3C)C(O)C1O (stereo not given)
98 % of control
